- target_or_system: human EDG-2 (Homo sapiens)
- Construct: cDNA of the cloned human EDG-2 was introduced into pEFneo, which is an animal expression vector
- Sequence (Q92633 whole entry): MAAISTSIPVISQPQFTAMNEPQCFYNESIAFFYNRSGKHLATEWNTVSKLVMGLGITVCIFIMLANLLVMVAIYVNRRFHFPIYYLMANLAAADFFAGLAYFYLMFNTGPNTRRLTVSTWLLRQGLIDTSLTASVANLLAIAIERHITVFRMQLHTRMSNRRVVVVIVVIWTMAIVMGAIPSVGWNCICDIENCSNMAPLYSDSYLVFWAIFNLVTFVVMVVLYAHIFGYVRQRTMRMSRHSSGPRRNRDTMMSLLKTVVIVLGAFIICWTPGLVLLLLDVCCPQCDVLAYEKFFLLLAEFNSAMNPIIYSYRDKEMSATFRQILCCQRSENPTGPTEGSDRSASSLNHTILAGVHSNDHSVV
- assay_comment: Inhibitory activity on LPA-induced elevation of intracellular Ca2+ level
- details: 50% inhibition of elevation of intracellular Ca2+ level by LPA, human EDG-2/HepG2 cells, fura-2
measurement_kind: IC50 (µM)

Example entries begin here.
>>> print(df.to_string())
                                   molecule  measurement_kind  quantitative_readout
0  COC(=O)CS(=O)(=O)Cc1ccc(-c2onc(C)c2NC(=O)OC(C)c2ccccc2Cl)cc1 (centres unmarked)              IC50                    10
1  Cc1ccsc1-c1onc(C)c1NC(=O)OC(C)c1ccccc1 (centres unmarked)              IC50                    10

P = Cc1noc(-c2ccc(F)cc2)c1NC(=O)OC(C)c1ccccc1 (centres unmarked)
Q = Cc1noc(-c2ccco2)c1NC(=O)OC(C)c1ccccc1Cl (centres unmarked)
Prompt: Of the two listed items, P and Q , which carries the larger IC50 figure? Pick one and reply with its label.
Completion: P
